Kindly state epitope binning signal for each of the entries shown.
Target: T1, human SLITRK6 extracellular domain linked to his tag (human, UniProt Q9H5Y7 27-608)
T1 construct: extracellular domain; also called huSLITRK6; Hu SLITRK6; not shown: his tag
Experiment: BLI binning on huSLITRK6-his; Ab1 = row antibody first, then Ab2 (competitor) = Sirtratumab
Field format: numeric only.

For this binder ( Sirtratumab (antibody, V domains shown, Prior-art benchmark antibody; also called Sirtratuzumab) VH: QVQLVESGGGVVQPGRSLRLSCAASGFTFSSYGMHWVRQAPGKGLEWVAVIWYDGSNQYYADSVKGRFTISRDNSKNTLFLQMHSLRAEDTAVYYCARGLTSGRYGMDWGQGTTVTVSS VL: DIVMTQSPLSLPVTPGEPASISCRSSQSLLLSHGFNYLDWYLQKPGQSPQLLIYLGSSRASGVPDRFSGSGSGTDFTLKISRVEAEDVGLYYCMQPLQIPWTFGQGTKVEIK ), measured epitope binning signal is 0.0645

For this binder ( phA108 (antibody, V domains shown, From phage display, then full-length construction; Only the variable regions are tied to the name) VH: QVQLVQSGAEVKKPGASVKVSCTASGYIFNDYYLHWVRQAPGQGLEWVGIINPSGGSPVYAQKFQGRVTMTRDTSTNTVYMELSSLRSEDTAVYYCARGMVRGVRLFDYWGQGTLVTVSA VL: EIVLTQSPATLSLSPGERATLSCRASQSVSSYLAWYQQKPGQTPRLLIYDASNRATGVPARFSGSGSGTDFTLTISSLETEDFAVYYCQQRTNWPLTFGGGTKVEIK ), measured epitope binning signal is 0.276

For this binder ( hu1H2-13 (antibody, V domains shown) VH: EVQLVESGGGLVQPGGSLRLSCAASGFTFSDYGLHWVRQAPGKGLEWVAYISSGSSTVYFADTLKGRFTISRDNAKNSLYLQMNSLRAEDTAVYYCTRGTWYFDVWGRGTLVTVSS VL: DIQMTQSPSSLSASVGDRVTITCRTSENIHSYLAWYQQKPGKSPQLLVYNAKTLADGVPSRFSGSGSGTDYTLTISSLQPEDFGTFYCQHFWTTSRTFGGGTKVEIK ), measured epitope binning signal is 0.312

For this binder ( hu1H2-03 (antibody, V domains shown, see m20) VH: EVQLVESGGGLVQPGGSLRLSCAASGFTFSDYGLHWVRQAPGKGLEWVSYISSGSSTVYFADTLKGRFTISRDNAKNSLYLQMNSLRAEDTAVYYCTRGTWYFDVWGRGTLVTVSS VL: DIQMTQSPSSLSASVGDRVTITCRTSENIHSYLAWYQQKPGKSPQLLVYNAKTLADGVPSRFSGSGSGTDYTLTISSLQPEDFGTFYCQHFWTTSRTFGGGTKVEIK ), measured epitope binning signal is 0.299

For this binder ( hu14G1-03 (antibody, V domains shown) VH: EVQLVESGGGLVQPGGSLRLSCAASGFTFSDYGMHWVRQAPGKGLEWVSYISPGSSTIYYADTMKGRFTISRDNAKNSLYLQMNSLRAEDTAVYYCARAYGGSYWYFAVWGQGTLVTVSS VL: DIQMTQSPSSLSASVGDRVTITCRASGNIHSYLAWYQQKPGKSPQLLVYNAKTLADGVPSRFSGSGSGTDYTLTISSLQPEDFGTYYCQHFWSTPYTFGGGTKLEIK ), measured epitope binning signal is 0.293

Data provenance: patent US20250296992A1
